# Test system: S. aureus Met-R multiresistant strains
# assay procedure: MIC determination (NCCLS broth microdilution), methicillin-resistant multiresistant S. aureus strains
# Format: cell-based, Staphylococcus aureus
# reported conditions: Staphylococcus aureus, Strain 42; antibiotype Oxa, Cip, Clin, Ery, Gm; read-out: MIC
endpoint: MIC (µg/mL)

CCC[C@@H]1C[C@@H](C(=O)N[C@@H]([C@H]2O[C@H](SC)[C@H](O)[C@@H](O)[C@H]2O)[C@H](C)Cl)N(C)C1 ... 64

* * *

# System: S. aureus Met-R multiresistant strains
# assay procedure: MIC determination (NCCLS broth microdilution), methicillin-resistant multiresistant S. aureus strains
# Type: cell-based, Staphylococcus aureus
# reported conditions: Staphylococcus aureus, Strain 30; antibiotype Oxa, Cip, Clin, Ery, Gm, SXT, Dox; read-out: MIC
endpoint: MIC (µg/mL)

CCC[C@@H]1C[C@@H](C(=O)N[C@@H]([C@H]2O[C@H](SC)[C@H](O)[C@@H](O)[C@H]2O)[C@H](C)Cl)N(C)C1 ... 16
CS(=O)(=O)c1ccc([C@@H](O)[C@@H](CO)NC(=O)C(Cl)Cl)cc1 ... 16
COc1cccc(OC)c1C(=O)N[C@@H]1C(=O)N2[C@@H]1SC(C)(C)[C@@H]2C(=O)O ... 64
O=C(N[C@H](CO)[C@H](O)c1ccc([N+](=O)[O-])cc1)C(Cl)Cl ... 8

* * *

# Test system: S. aureus Met-R multiresistant strains
# assay procedure: MIC determination (NCCLS broth microdilution), methicillin-resistant multiresistant S. aureus strains
# Type: cell-based, Staphylococcus aureus
# reported conditions: Staphylococcus aureus, Strain 45; antibiotype Oxa, Cip, Clin, Ery, Gm, Rif, Dox, Fos; read-out: MIC
endpoint: MIC (µg/mL)

O=C(N[C@H](CO)[C@H](O)c1ccc([N+](=O)[O-])cc1)C(Cl)Cl ... 8
CCC[C@@H]1C[C@@H](C(=O)N[C@@H]([C@H]2O[C@H](SC)[C@H](O)[C@@H](O)[C@H]2O)[C@H](C)Cl)N(C)C1 ... 64
CS(=O)(=O)c1ccc([C@@H](O)[C@@H](CO)NC(=O)C(Cl)Cl)cc1 ... 16

* * *

# System: S. aureus Met-R multiresistant strains
# assay procedure: MIC determination (NCCLS broth microdilution), methicillin-resistant multiresistant S. aureus strains
# Type: cell-based, Staphylococcus aureus
# reported conditions: Staphylococcus aureus, Strain 22; antibiotype Oxa, Cip, Clin, Ery; read-out: MIC
# Procedure: The MICs of thiamphenicol and of other antibiotics was obtained by using the method proposed by NCCLS (National Committee for Clinical Laboratory Standards, 1999). Various antibiotic concentrations were added to bacteria in exponental growth (final inoculum 5×10^5 […]); dilution in Mb (cation-supplemented Mueller-Hinton broth) and distribution on a microplate by using an automatic diluting machine Biomek 1000 (Beckman, USA). MHb charged with 2% NaCl was used to test the methicillin activity. […]
endpoint: MIC (µg/mL)

CS(=O)(=O)c1ccc([C@@H](O)[C@@H](CO)NC(=O)C(Cl)Cl)cc1 [Thiamphenicol, thiamphenicol] ... 16
O=C(N[C@H](CO)[C@H](O)c1ccc([N+](=O)[O-])cc1)C(Cl)Cl [Cloramphenicol, cloramphenicol] ... 8

* * *

# System: S. aureus Met-R multiresistant strains
# assay procedure: MIC determination (NCCLS broth microdilution), methicillin-resistant multiresistant S. aureus strains
# Type: cell-based, Staphylococcus aureus
# reported conditions: Staphylococcus aureus, Strain 5; antibiotype Oxa, Cip, Clin, Ery; read-out: MIC
# Description: The MICs of thiamphenicol and of other antibiotics was obtained by using the method proposed by NCCLS (National Committee for Clinical Laboratory Standards, 1999). Various antibiotic concentrations were added to bacteria in exponental growth (final inoculum 5×10^5 […]); dilution in Mb (cation-supplemented Mueller-Hinton broth) and distribution on a microplate by using an automatic diluting machine Biomek 1000 (Beckman, USA). MHb charged with 2% NaCl was used to test the methicillin activity. […]
endpoint: MIC

CC[C@H]1OC(=O)[C@H](C)[C@@H](O[C@H]2C[C@@](C)(OC)[C@@H](O)[C@H](C)O2)[C@H](C)[C@@H](O[C@@H]2O[C@H](C)C[C@H](N(C)C)[C@H]2O)[C@](C)(O)C[C@@H](C)C(=O)[C@H](C)[C@@H](O)[C@]1(C)O ... > 64 µg/mL
COc1cccc(OC)c1C(=O)N[C@@H]1C(=O)N2[C@@H]1SC(C)(C)[C@@H]2C(=O)O ... > 64 µg/mL
CS(=O)(=O)c1ccc([C@@H](O)[C@@H](CO)NC(=O)C(Cl)Cl)cc1 ... > 64 µg/mL
O=C(N[C@H](CO)[C@H](O)c1ccc([N+](=O)[O-])cc1)C(Cl)Cl ... 64 µg/mL
CCC[C@@H]1C[C@@H](C(=O)N[C@@H]([C@H]2O[C@H](SC)[C@H](O)[C@@H](O)[C@H]2O)[C@H](C)Cl)N(C)C1 ... > 64 µg/mL
